measurementTarget: plant lectin ConA (Canavalia ensiformis, UniProt P02866)
Construct: purchased Vector
assay: Neoglycolipid microarray binding, ConA
testSettings: biotinylated ConA at 0.5 μg/ml
measuredMetric: Fluorescence signal intensity ConA

# molecule, measuredMetric, result
rows = [
    ("CCCCCCCCCCCCCCCCOCC(COP(=O)(O)OCCNCC(NC(C)=O)C(O)C(OC1OC(CO)C(OC2OC(COC3OC(CO)C(O)C(O)C3O)C(O)C(OC3OC(CO)C(O)C(O)C3O)C2O)C(O)C1NC(C)=O)C(O)CO)OCCCCCCCCCCCCCCCC (stereo not shown)", "Fluorescence signal intensity ConA", "14,192"),
    ("CCCCCCCCCCCCCCCCOCC(COP(=O)(O)OCCNCC(NC(C)=O)C(O)C(OC1OC(CO)C(OC2OC(COC3OC(CO)C(O)C(O)C3O)C(O)C(OC3OC(CO)C(O)C(O)C3O)C2O)C(O)C1NC(C)=O)C(O)COC1OC(C)C(O)C(O)C1O)OCCCCCCCCCCCCCCCC (stereo not shown)", "Fluorescence signal intensity ConA", "20,011"),
    ("CCCCCCCCCCCCCCCCOCC(COP(=O)(O)OCCNCC(NC(C)=O)C(O)C(OC1OC(CO)C(OC2OC(COC3OC(CO)C(O)C(OC4OC(CO)C(O)C(O)C4O)C3O)C(O)C(OC3OC(CO)C(O)C(O)C3O)C2O)C(O)C1NC(C)=O)C(O)CO)OCCCCCCCCCCCCCCCC (stereo not shown)", "Fluorescence signal intensity ConA", "2,885"),
    ("CCCCCCCCCCCCCCCCOCC(COP(=O)(O)OCCNCC(OC1OC(CO)C(O)C(O)C1O)C(O)C(O)C(O)CO)OCCCCCCCCCCCCCCCC (stereo not shown)", "Fluorescence signal intensity ConA", "— (Signal less than 1)"),
    ("CCCCCCCCCCCCCCCCOCC(COP(=O)(O)OCCNCC(O)C(O)C(O)C(O)COC1OC(CO)C(O)C(O)C1O)OCCCCCCCCCCCCCCCC (stereo not shown)", "Fluorescence signal intensity ConA", 608),
    ("CCCCCCCCCCCCCCCCOCC(COP(=O)(O)OCCNCC(NC(C)=O)C(O)C(OC1OC(CO)C(O)C(OC2OC(CO)C(O)C(O)C2O)C1O)C(O)CO)OCCCCCCCCCCCCCCCC (stereo not shown)", "Fluorescence signal intensity ConA", 575),
    ("CCCCCCCCCCCCCCCCOCC(COP(=O)(O)OCCNCC(NC(C)=O)C(O)C(OC1OC(CO)C(OC2OC(COC3OC(CO)C(O)C(O)C3O)C(O)C(O)C2O)C(O)C1NC(C)=O)C(O)CO)OCCCCCCCCCCCCCCCC (stereo not shown)", "Fluorescence signal intensity ConA", "1,923"),
    ("CCCCCCCCCCCCCCCCOCC(COP(=O)(O)OCCNCC(O)C(OC1OC(CO)C(O)C(O)C1O)C(O)C(O)COC1OC(COC2OC(CO)C(O)C(O)C2O)C(O)C(OC2OC(CO)C(O)C(O)C2O)C1O)OCCCCCCCCCCCCCCCC (stereo not shown)", "Fluorescence signal intensity ConA", "15,291"),
    ("CCCCCCCCCCCCCCCCOCC(COP(=O)(O)OCCNCC(NC(C)=O)C(O)C(OC1OC(CO)C(O)C(O)C1O)C(O)CO)OCCCCCCCCCCCCCCCC (stereo not shown)", "Fluorescence signal intensity ConA", "— (Signal less than 1)"),
    ("CCCCCCCCCCCCCCCCOCC(COP(=O)(O)OCCNCC(O)C(OC1OC(CO)C(O)C(O)C1O)C(O)C(O)CO)OCCCCCCCCCCCCCCCC (stereo not shown)", "Fluorescence signal intensity ConA", "— (Signal less than 1)"),
    ("CCCCCCCCCCCCCCCCOCC(COP(=O)(O)OCCNCC(NC(C)=O)C(O)C(OC1OC(CO)C(OC2OC(COC3OC(COC4OC(CO)C(O)C(O)C4O)C(O)C(OC4OC(CO)C(O)C(O)C4O)C3O)C(O)C(OC3OC(CO)C(O)C(O)C3OC3OC(CO)C(O)C(O)C3O)C2O)C(O)C1NC(C)=O)C(O)CO)OCCCCCCCCCCCCCCCC (stereo not shown)", "Fluorescence signal intensity ConA", "19,006"),
    ("CCCCCCCCCCCCCCCCOCC(COP(=O)(O)OCCNCC(O)C(OC1OC(CO)C(O)C(O)C1O)C(O)C(O)COC1OC(CO)C(O)C(O)C1O)OCCCCCCCCCCCCCCCC (stereo not shown)", "Fluorescence signal intensity ConA", 759),
    ("CCCCCCCCCCCCCCCCOCC(COP(=O)(O)OCCNCC(NC(C)=O)C(O)C(OC1OC(CO)C(OC2OC(COC3OC(CO)C(O)C(O)C3O)C(O)C(OC3OC(CO)C(O)C(O)C3O)C2OC2OCC(O)C(O)C2O)C(O)C1NC(C)=O)C(O)CO)OCCCCCCCCCCCCCCCC (stereo not shown)", "Fluorescence signal intensity ConA", 977),
    ("CCCCCCCCCCCCCCCCOCC(COP(=O)(O)OCCNCC(NC(C)=O)C(O)C(OC1OC(CO)C(OC2OC(COC3OC(COC4OC(CO)C(O)C(O)C4O)C(O)C(OC4OC(CO)C(O)C(O)C4O)C3O)C(O)C(OC3OC(CO)C(O)C(O)C3O)C2O)C(O)C1NC(C)=O)C(O)CO)OCCCCCCCCCCCCCCCC (stereo not shown)", "Fluorescence signal intensity ConA", "16,390"),
    ("CCCCCCCCCCCCCCCCOCC(COP(=O)(O)OCCNCC(NC(C)=O)C(O)C(OC1OC(CO)C(OC2OC(COC3OC(COC4OC(CO)C(O)C(O)C4O)C(O)C(OC4OC(CO)C(O)C(O)C4O)C3O)C(O)C(O)C2O)C(O)C1NC(C)=O)C(O)CO)OCCCCCCCCCCCCCCCC (stereo not shown)", "Fluorescence signal intensity ConA", "16,615"),
    ("CCCCCCCCCCCCCCCCOCC(COP(=O)(O)OCCNCC(NC(C)=O)C(O)C(OC1OC(CO)C(OC2OC(COC3OC(COC4OC(CO)C(O)C(O)C4OC4OC(CO)C(O)C(O)C4O)C(O)C(OC4OC(CO)C(O)C(O)C4OC4OC(CO)C(O)C(O)C4O)C3O)C(O)C(OC3OC(CO)C(O)C(O)C3OC3OC(CO)C(O)C(O)C3OC3OC(CO)C(O)C(O)C3O)C2O)C(O)C1NC(C)=O)C(O)CO)OCCCCCCCCCCCCCCCC (stereo not shown)", "Fluorescence signal intensity ConA", "21,359"),
]
